tested on: Influenza A/WSN/33 (H1N1) virus; test: In vitro anti-influenza virus assay (neutralization test), cytopathic effect on MDCK cells; assay type: cell-based; settings: Influenza A/WSN/33 (H1N1), MDCK cells, 72 h, read-out: IC50 (concentration reducing virus-induced cytopathic effect by 50%)
Reported values of IC50 for individual entries

> print(dat)
                                   compound  quantity  measured.value
1  Cc1c(-c2cc(C(=O)O)c3cc(Br)ccc3n2)cnn1-c1ccc(C(F)(F)F)cc1 [Compound 23]      IC50     1 to 5.9 µM
2  Cc1c(-c2cc(C(=O)O)c3cc(Br)ccc3n2)ccn1-c1ccccc1 [Compound 48]      IC50     1 to 5.9 µM

Under Influenza A/WSN/33 (H1N1) virus: IC50 value of Cc1c(-c2cc(C(=O)O)c3cc(Br)ccc3n2)cnn1-c1ccc(Cl)c(Cl)c1 [Compound 8] ?
1 to 5.9 µM

Proceed to Cc1c(-c2cc(C(=O)O)c3cc(Br)ccc3n2)cnn1-c1ccc(F)cc1F [Compound 21]
1 to 5.9 µM

Proceed to Cc1c(-c2cc(C(=O)O)c3cc(Br)ccc3n2)cnn1-c1ccc([N+](=O)[O-])cc1 [Compound 16]
1 to 5.9 µM

Proceed to Cc1ccc(C)c(-n2ncc(-c3cc(C(=O)O)c4cc(Br)cc(Br)c4n3)c2C)c1 [Compound 58]
1 to 5.9 µM

Data origin, for the record: patent US8710079B2
